# Assayed target: KLK1 (Homo sapiens (Human))
# Sequence (P06870 25-262): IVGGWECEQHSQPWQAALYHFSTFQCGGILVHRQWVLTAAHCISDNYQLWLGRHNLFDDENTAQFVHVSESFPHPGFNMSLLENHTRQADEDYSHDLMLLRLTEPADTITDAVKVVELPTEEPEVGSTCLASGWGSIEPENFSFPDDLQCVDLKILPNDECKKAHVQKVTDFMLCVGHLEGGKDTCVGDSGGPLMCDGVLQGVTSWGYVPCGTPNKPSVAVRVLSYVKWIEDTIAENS
pIC50: −log10 of the molar value.
Property measured: pIC50

Task item: Which measured pIC50 belongs to Nc1nccc2c(N3CCCC3c3ccc(N4CCn5c(nnc5C(F)(F)F)C4)nc3)cccc12 (single isomer, unassigned) [Example 10003] , tested on KLK1 (Homo sapiens (Human))?
Reply: < 4.40

Task item: Write down the reported pIC50 of CN1CCC(CNc2ccc(CNc3ccnc4[nH]ccc34)cn2)CC1 [Example 1197] , test system: KLK1 (Homo sapiens (Human)).
Reply: < 4.40

Task item: Please state recorded pIC50 (tested on KLK1 (Homo sapiens (Human))) of Cc1cc(N2CCn3c(nnc3C(F)(F)F)C2C)ncc1CNc1cccc2c(N)nccc12 (single isomer, unassigned) [Example 1305]
Reply: < 5.40

Task item: # returns recorded pIC50 (system: KLK1 (Homo sapiens (Human))) for Nc1ncc(Cl)c2cc(NCc3ccnc(N4CCn5ccnc5C4)c3)ccc12 [Example 4437]
Reply: 5.00 to 5.52

Task item: Reported pIC50 for KLK1 (Homo sapiens (Human)), given Nc1nccc2cc(NCc3ccnc(-c4cccc(CN5CCCC5)c4)c3)ccc12 [Example 4434] ?
Reply: 5.00 to 5.52

Task item: Lookup: pIC50 / KLK1 (Homo sapiens (Human)) / Cc1cc(NCc2ccnc(OCC3CCN(C)CC3)c2)cc2ccncc12 [Example 4464]
Reply: 5.00 to 5.52

Task item: Under KLK1 (Homo sapiens (Human)): pIC50 value of Cc1cc2c(NCc3ccc(NCC4CCN(C)CC4)nc3)ccnc2[nH]1 [Example 1202] ?
Reply: < 4.40

Task item: Value wanted: pIC50 (KLK1 (Homo sapiens (Human))) of entry CC(C)c1cc(N2CCn3c(nnc3C(F)(F)F)C2)ncc1CNc1cccc2c(N)nccc12 [Example 1308]
Reply: 5.00 to 5.52

Task item: Form field: pIC50 recorded for CC(C)N1C[C@H]2C[C@@H]1CN2Cc1cc(CNc2cccc3c(N)nccc23)ccn1 [Example 4294] with KLK1 (Homo sapiens (Human)) (enter value)
Reply: 4.40 to 5.00

Task item: Under KLK1 (Homo sapiens (Human)): pIC50 value of Nc1nccc2c(NCc3ccc(N4CCn5ccnc5C4)nc3)cccc12 [Example 1128] ?
Reply: 5.00 to 5.52

Task item: Form: Entry = CN1CCC(NC(=O)c2cc(CNc3cccc4c(N)nccc34)ccn2)CC1 [Example 4289] | System = KLK1 (Homo sapiens (Human)) | pIC50 = ____
Reply: 4.40 to 5.00

Task item: // map CC1c2nnc(C(F)(F)F)n2CCN1c1ccc(CNc2cccc3c(N)nccc23)cn1 (centres unmarked) [Example 1285] to recorded pIC50 (system: KLK1 (Homo sapiens (Human)))
Reply: 5.00 to 5.52

Task item: Requested read-out pIC50, target or system KLK1 (Homo sapiens (Human)), entry Cn1ncc2c1CCN(c1ccc(CNc3cccc4c(N)nccc34)cn1)C2 [Example 1286]
Reply: 5.52 to 6.00

Task item: Item Cn1ccnc1CCCOc1ncc(CNc2cccc3c(N)nccc23)cn1 [Example 1035] with KLK1 (Homo sapiens (Human)) - pIC50?
Reply: 4.40 to 5.00

* * *

Let's go through some pIC50 measurements on Human Factor XIIa (Homo sapiens (Human), UniProt P00748) together.
Sequence (P00748 373-615): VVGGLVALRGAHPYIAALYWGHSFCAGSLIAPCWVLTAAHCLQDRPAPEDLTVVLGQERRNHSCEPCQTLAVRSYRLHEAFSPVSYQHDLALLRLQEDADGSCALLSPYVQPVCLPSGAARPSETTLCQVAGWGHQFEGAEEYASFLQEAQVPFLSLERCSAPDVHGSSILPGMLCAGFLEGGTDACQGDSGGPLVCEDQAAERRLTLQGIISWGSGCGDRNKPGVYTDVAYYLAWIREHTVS
pIC50: −log10 of the molar value.

{"columns": ["Molecule", "Assayed target", "pIC50"],
 "data": [
  ["Cc1cc(N2CCn3c(nnc3C(F)(F)F)C2)nc(C)c1CNc1cccc2c(N)nccc12", "Human Factor XIIa (Homo sapiens (Human), UniProt P00748)", "6.52 to 7.00"],
  ["Nc1ncc(Cl)c2cc(NCc3cnc(NCCC(=O)N4CCCC4)nc3)ccc12", "Human Factor XIIa (Homo sapiens (Human), UniProt P00748)", "4.40 to 5.00"],
  ["Nc1nccc2c(N3CCCC3c3ccc(N4CCn5c(nnc5C(F)(F)F)C4)nc3)cccc12 (racemic) [Example 10002]", "Human Factor XIIa (Homo sapiens (Human), UniProt P00748)", "5.52 to 6.00"]
]}

Task item: Could you share which pIC50 value was measured for Nc1nccc2c(NCc3ccc(N4CCc5nccn5CC4)nc3)cccc12 ?
Reply: 6.00 to 6.52

Task item: Look up pIC50: CN1CC2C[C@H]1C[C@H]2OCc1ccc(CNc2ccc3c(N)nccc3c2)c(F)c1 (single isomer, unassigned)
Reply: 6.52 to 7.00

Task item: Looking for the measured pIC50 of CN1CCN(Cc2ccc(CNc3ccc4c(N)nccc4c3)cc2)CC1 , can you help?
Reply: 6.00 to 6.52

Task item: Would you mind telling me what pIC50 value was observed for Cc1cc2c(NCc3cnc(N4CCn5c(nnc5C(F)(F)F)C4)cc3C)cncc2[nH]1 ?
Reply: 5.52 to 6.00

Task item: Need pIC50 of CC(C)(O)[C@H]1CCN(c2ccc(CNc3ccc4c(N)ncc(Cl)c4c3)cn2)C1 , thanks.
Reply: 5.00 to 5.52
